- test target: T1, human vascular endothelial growth factor receptor-2 Fc chimera (KDR-Fc) (human, UniProt P35968 20-764)
- T1 construct: range 1-764; also called human VEGFR-2; VEGF-R2-Fc; not shown: human IgG1 Fc
- T1 sequence (P35968 20-764 limits assumed, change not shown, form in doubt): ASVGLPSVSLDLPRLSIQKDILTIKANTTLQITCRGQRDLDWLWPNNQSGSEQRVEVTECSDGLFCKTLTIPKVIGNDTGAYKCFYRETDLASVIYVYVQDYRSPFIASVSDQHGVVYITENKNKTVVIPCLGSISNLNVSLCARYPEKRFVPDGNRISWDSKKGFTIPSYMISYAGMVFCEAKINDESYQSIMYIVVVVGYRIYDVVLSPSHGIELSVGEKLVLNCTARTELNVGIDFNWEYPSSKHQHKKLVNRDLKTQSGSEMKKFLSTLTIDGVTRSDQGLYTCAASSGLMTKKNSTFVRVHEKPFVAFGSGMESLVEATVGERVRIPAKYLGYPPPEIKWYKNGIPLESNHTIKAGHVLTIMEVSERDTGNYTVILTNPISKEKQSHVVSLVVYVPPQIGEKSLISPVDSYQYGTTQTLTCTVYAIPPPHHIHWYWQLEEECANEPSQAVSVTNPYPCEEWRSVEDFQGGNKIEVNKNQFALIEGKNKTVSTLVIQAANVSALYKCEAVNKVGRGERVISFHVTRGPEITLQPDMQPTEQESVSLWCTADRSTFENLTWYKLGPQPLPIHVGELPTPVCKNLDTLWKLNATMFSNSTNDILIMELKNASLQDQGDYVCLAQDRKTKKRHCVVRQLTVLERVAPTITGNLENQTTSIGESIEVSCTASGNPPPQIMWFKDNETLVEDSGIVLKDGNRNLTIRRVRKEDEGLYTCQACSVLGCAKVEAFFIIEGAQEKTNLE
- test method notes: radioactive equilibrium binding, 1 nM KDR-Fc
test readout: Binding to 1 nM KDR, % (%)

3C3 PR3 (designed binder, Del 1-8) EVVAATPTSLLISWRHPHFPTRYYRITYGETGGNSPVQEFTVPLQPPTATISGLKPGVDYTITGYAVTMEQNGHELFTPISINYRT; 17
K6 (designed binder, Del 1-8) EVVAATPTSLLISWRHPHFPTRYYRITYGETGGNSPVQEFTVPLQPPTATISGLKPGVDYTITGYAVTDGKDGRVLLTPISINYRT; 27
3′C3 PR4 (designed binder, Del 1-8) EVVAATPTSLLISWRHPHFPTRYYRITYGETGGNSPVQEFTVPLQPPTATISGLKPGVDYTITGYAVTMAQNGHALFTPISINYRT; 32

This collection of values is drawn from patent US20140179896A1.
